These entries and their values trace back to ChEMBL document CHEMBL4513216.

Assign INHIBITION to each entry below.
- System: Plasmodium berghei
- measurement.protocol: Screen against P. berghei liver stage (PbLuc), transformed with Luciferase, at 10uM
- Format: functional, HepG2
- experimental.context: tested at 10 uM
Out of some 69,000 compounds screened, about 8,600 (12%) showed an effect of 50% or more. This excerpt belongs to a sample that is enriched for strong results.
Field: numeric (%). Do not append units.

For record Cn1cc(C(=O)N2CCC(c3cc(CCO)n(C)n3)C2)cn1 (stereo unspecified) the listed INHIBITION is 0.696

For record CCn1ncc2c1C(COC)N(C(=O)CCc1ccccc1)CC2 (stereo unspecified) the listed INHIBITION is 43

For record CCC(C)c1noc(C2CCN(C(=O)Cn3nc(C)cc3C)CC2)n1 (stereo unspecified) the listed INHIBITION is 40.8

For record Cc1cccc(CN2CCC3(CC2)NC(=O)CC3c2ccccc2)n1 (stereo unspecified) the listed INHIBITION is 37.1

For record COC1C[C@@H]2CN(C(=O)c3cc4cccc(F)c4[nH]3)C[C@@H]2C1 (stereo partly specified) the listed INHIBITION is -14.379

For record CCc1nnc(CN2CC(n3cccn3)C2)o1 the listed INHIBITION is -110
